experiment: NCI Yeast Anticancer Drug Screen. Data for the mgt1 strain (AID 153); details: S. cerevisiae mgt1 mutant growth inhibition; at 100.0 µM
Compounds without any hit were thinned out: in the full panel of roughly 79,000, 15% have a hit. The source made the active and inactive calls. Rule as the data show it: active = growth inhibition above about 70%; inactive = the rest.
// allowed return values: active, inactive

Could you check what this test reported for CN(C)N=Nc1ccccc1C(=O)NC#N ?
active

Quick one: N/C(=N/N=C/c1cc(Br)cc(Br)c1O)NO
active

Quick one: CNCCCNc1c2ccccc2nc2cccc([N+](=O)[O-])c12
active

Quick one: CCC(C)NC1=NCC(C)S1 (configuration not stated)
inactive

Quick one: CC1=C(SCc2ccccc2)C(=O)c2ccccc2C1=O
active

Quick one: COc1cc(/C=N/Nc2nnc3c4ccccc4c4ncccc4c3n2)cc(OC)c1OC
inactive

Quick one: CCOC(=O)C1N=[N+](c2ccccc2)C(=O)/C1=C\n1c(=S)[nH]c2ccc([N+](=O)[O-])cc21 (configuration not stated)
inactive

Quick one: CC12C(=O)OC(=O)C(c3ccccc31)c1ccccc12
inactive

Quick one: Nc1ccn(C2OC(COP(=O)(O)O)C(O)C2O)c(=O)n1 (configuration not stated)
inactive

Quick one: OCc1ccccc1Cc1ccccc1
inactive

Quick one: Oc1ccc2c(c1)C(O)CCCC2 (configuration not stated)
active

Quick one: O=C1/C(=C/c2ccccc2)CCCC1CN1CCCCC1 (configuration not stated)
active
